# IC50 listing for each entry below
molecular target: XIAP-BIR3 (Homo sapiens, UniProt P98170); experiment: XIAP-BIR3 fluorescence polarization binding assay; conditions: FP, probe AbuRPFK-5FAM, 60 min at 25° C.
Sequence (P98170 241-356 limits assumed): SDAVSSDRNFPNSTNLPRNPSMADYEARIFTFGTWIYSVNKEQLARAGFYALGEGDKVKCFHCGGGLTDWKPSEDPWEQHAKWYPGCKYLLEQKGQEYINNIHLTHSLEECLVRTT

{"columns": ["compoundSmiles", "targetEntity", "IC50"],
 "data": [
  ["CN[C@@H](C)C(=O)N[C@@H](C)C(=O)N1C[C@@H](OCCC(=O)N2CCN(C(=O)CCO[C@H]3C[C@@H](C(=O)N[C@@H]4CCCc5ccccc54)N(C(=O)[C@H](C)NC(=O)[C@H](C)NC)C3)CC2)C[C@H]1C(=O)N[C@@H]1CCCc2ccccc21", "XIAP-BIR3 (Homo sapiens, UniProt P98170)", "100 to 1000 nM"],
  ["CN[C@@H](C)C(=O)N[C@H](C(=O)N1C[C@@H](OCCCN2CCN(CCCO[C@H]3C[C@@H](C(=O)N[C@@H]4CCCc5ccccc54)N(C(=O)[C@@H](NC(=O)[C@H](C)NC)C(C)C)C3)CC2)C[C@H]1C(=O)N[C@@H]1CCCc2ccccc21)C(C)C", "XIAP-BIR3 (Homo sapiens, UniProt P98170)", "0.1 to 10 nM"],
  ["CN[C@@H](C)C(=O)N[C@H](C(=O)N1C[C@@H](OCCC(=O)N2CCN(C(=O)CCO[C@H]3C[C@@H](C(=O)N[C@@H]4CCCc5ccccc54)N(C(=O)[C@@H](NC(=O)[C@H](C)NC)C(C)C)C3)CC2)C[C@H]1C(=O)N[C@@H]1CCCc2ccccc21)C(C)C", "XIAP-BIR3 (Homo sapiens, UniProt P98170)", "10 to 100 nM"]
]}

Could you tell me which IC50 is on file for CN[C@@H](C)C(=O)N[C@H](C(=O)N1CCC[C@H]1C(=O)N[C@@H]1CCCc2c1cccc2N1CCN(c2cccc3c2CCC[C@H]3NC(=O)[C@@H]2CCCN2C(=O)[C@@H](NC(=O)[C@H](C)NC)C(C)(C)C)CC1)C(C)(C)C ?
100 to 1000 nM

Could you tell me which IC50 is on file for CC[C@H](NC(=O)[C@H](C)NC)C(=O)N1C[C@@H](OCCCN2CCN(CCCO[C@H]3C[C@@H](C(=O)N[C@@H]4CCCc5ccccc54)N(C(=O)[C@H](CC)NC(=O)[C@H](C)NC)C3)CC2)C[C@H]1C(=O)N[C@@H]1CCCc2ccccc21 ?
10 to 100 nM

Could you tell me which IC50 is on file for CC[C@H](NC(=O)[C@H](C)NC)C(=O)N1C[C@@H](OCCC(=O)N2CCN(C(=O)CCO[C@H]3C[C@@H](C(=O)N[C@@H]4CCCc5ccccc54)N(C(=O)[C@H](CC)NC(=O)[C@H](C)NC)C3)CC2)C[C@H]1C(=O)N[C@@H]1CCCc2ccccc21 ?
100 to 1000 nM

Could you tell me which IC50 is on file for CN[C@@H](C)C(=O)N[C@H](C(=O)N1C[C@@H](OCCC(=O)N2CCN(C(=O)CCO[C@H]3C[C@@H](C(=O)N[C@@H]4CCCc5ccccc54)N(C(=O)[C@@H](NC(=O)[C@H](C)NC)C4CCC4)C3)CC2)C[C@H]1C(=O)N[C@@H]1CCCc2ccccc21)C1CCC1 ?
10 to 100 nM

Could you tell me which IC50 is on file for CN[C@@H](C)C(=O)N[C@H](C(=O)N1C[C@@H](OCCCN2CCN(CCCO[C@H]3C[C@@H](C(=O)N[C@@H]4CCCc5ccccc54)N(C(=O)[C@@H](NC(=O)[C@H](C)NC)C4CCCCC4)C3)CC2)C[C@H]1C(=O)N[C@@H]1CCCc2ccccc21)C1CCCCC1 ?
10 to 100 nM

Could you tell me which IC50 is on file for CN[C@@H](C)C(=O)N[C@H](C(=O)N1CCC[C@H]1C(=O)N[C@@H]1CCCc2c1cccc2N1CCN(c2cccc3c2CCC[C@H]3NC(=O)[C@@H]2CCCN2C(=O)[C@@H](NC(=O)[C@H](C)NC)C(C)C)CC1)C(C)C ?
10 to 100 nM
